Hello, the source for this data is PubChem BioAssay (NCI), in case you need it.

Items are presented alongside their recorded TGI.
- System: SK-MEL-28 melanoma
- measurement description: NCI tumour cell line growth inhibition, 48 h
Report only the number, with the unit µM understood.

Observe how each entry below is paired with its result.
{"columns": ["structure smiles string", "TGI / µM"],
 "data": [
  ["N#CC(C#N)=CSc1ccccc1", 81.1],
  ["COc1c(CNC(=O)CCl)cc2[nH]c(C)cc2c1CNC(=O)CCl", 29.8],
  ["[N-]=[N+]=Nc1c([N+](=O)[O-])c(Cl)nc2ccccc12", 5.23]
]}

Kindly review the next compound as well.
Find the recorded TGI belonging to CCCN(CCC)CCCNC(=O)c1cc2c(-c3ccc(OC)c(OC)c3)nn(C)c2s1 and report it. 32.1
